tgt: plasma kallikrein (Homo sapiens)
Construct: Human plasma kallikrein and Factor XIIa were purchased; purchased Enzyme Research Laboratories, Inc. (South Bend, Ind.)
assay_info: Apparent equilibrium dissociation constant (Ki*) with plasma kallikrein
Format: biochemical
condition_label: read-out: Ki* for plasma kallikrein
pKi: −log10 of the molar value. Bridges are numbered along the chain shown (N, C = ends). Where no end group is shown, it is not given here.
measured_attribute: pKi

- VREVCSEQAEDGHCRAAHPRWYFDVTEGKCAPFYYGGCGGNRNNFDTEEYCAAVCGSA (disulfide 5-55, 14-38, 30-51) [KALI-DY]: 10.82

====

tgt: plasma kallikrein (Homo sapiens, UniProt P03952)
Construct: Human plasma kallikrein and Factor XIIa were purchased; purchased Enzyme Research Laboratories, Inc. (South Bend, Ind.)
Sequence (P03952 391-638 limits assumed): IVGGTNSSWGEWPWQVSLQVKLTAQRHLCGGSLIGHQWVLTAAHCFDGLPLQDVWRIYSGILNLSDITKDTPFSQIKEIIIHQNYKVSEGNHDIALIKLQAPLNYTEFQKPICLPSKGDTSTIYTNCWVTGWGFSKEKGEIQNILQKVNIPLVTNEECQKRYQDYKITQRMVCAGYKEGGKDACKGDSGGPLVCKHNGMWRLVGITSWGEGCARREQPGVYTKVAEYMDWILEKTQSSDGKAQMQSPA
Sequence (P03952 20-390 limits assumed): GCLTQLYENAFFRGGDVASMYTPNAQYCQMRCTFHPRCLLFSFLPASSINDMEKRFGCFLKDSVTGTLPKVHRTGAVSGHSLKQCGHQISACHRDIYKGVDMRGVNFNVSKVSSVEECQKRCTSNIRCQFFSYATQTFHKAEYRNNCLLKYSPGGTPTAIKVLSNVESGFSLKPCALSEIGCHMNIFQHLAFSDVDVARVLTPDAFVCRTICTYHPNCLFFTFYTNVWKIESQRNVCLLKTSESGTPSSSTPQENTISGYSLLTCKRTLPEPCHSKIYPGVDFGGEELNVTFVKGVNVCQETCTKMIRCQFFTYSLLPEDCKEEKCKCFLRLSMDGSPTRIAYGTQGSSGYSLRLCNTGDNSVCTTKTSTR
assay_info: Apparent equilibrium dissociation constant (Ki*) with plasma kallikrein
Format: biochemical
condition_label: 25° C., pH 7.5, 0.7 mM S2302, 1.5 h incubation; at least 3 independent measurements; read-out: Plasma Kallikrein Ki*
Bridges are numbered along the chain shown (N, C = ends). Where no end group is shown, it is not given here.
# maps each entry to its Ki
measured_attribute: Ki (nM)

- VREVCSEQAEPGHCRAAHPRWYFDVTEGKCAPFYYGGCGGNRNNFDTEEYCAAVCGSA (disulfide 5-55, 14-38, 30-51) [KALI-PY]: 0.136
- VREVCSEQAEEGHCRAAHPRWYFDVTEGKCAPFFYGGCGGNRNNFDTEEYCAAVCGSA (disulfide 5-55, 14-38, 30-51) [KALI-E]: 0.103
- VREVCSEQAEDGHCRAAHPRWYFDVTEGKCAPFFYGGCGGNRNNFDTEEYCAAVCGSA (disulfide 5-55, 14-38, 30-51) [KALI-D]: 0.025

Hello, the source for this data is patent US5780265A, in case you need it.
